// provenance: the nanobody polyreactivity screen of Harvey et al. (2022)

test: yeast display, Sf9 membrane polyspecificity reagent, FACS + sequencing; frameworks hold sequencing errors
outcome-measure: polyreactivity (PSR sort gate)

Solved entries:
QVQLVESGGGLVQAGGSLRLSCAASGSTFSTYAMGWYRQAPGKERELVAAISRTGGSTYYADSVKGRFTISRDNAKNTVYLQMNSLKPEDTAVYYCATGDSGGYDYWGQGTQVTVSS :: low polyreactivity
QVQLVESGGGLVQAGGSLRLSCAASGRIFQYYAMGWYRQAPGKERELVAAINSSGGRTYYADSVKGRFTISRDNAKNTVYLQMNSLKPEDTAVYYCNAVLSTRGMDYWGQGTQVTVSS :: high polyreactivity
QVQLVESGGGLVQAGGSLRLSCAASGSIFAWYAMGWYRPAPGKERELVATITWSGGSTYYADSVKGRVTISRDNAKNTVYLQMNSLKPEDTAVYYCAAEVLGIWYDLWDQGDYGGQGTQVTVSS :: low polyreactivity
QVQLVESGGGLVQAGGSLRLSCAASGRIFLLNAMGWYRQAPGKERELVAAITSGGTTYYADSVKGRFTISRDNAKNTVYLQMNSLKPEDTAVYYCAAEAGYFTYGRRDYWGQGTQVTGSS :: low polyreactivity
QVQLVESGGGLVQAGGSLRLSCAASGIFTRYAMGWYRQAPGKERELVAAISRGGGSTYYADSVKGLFTISRDNAKNTCYLQMNSLKPEDTAVYYCNTYKRPRSPGPKFYYWGEGTQVTVSS :: high polyreactivity
QVQLVESGGGLVQAGGSLRFSCAASGGTFQGNAMGWYRQAPGKEREFVATITRGGGSTYYADSVKGRFTISRDNAKNTVYLQMNSLKPEDTAVYYCNAKPSYYQRYNYWGQGTQVTVSS :: high polyreactivity
QVQLVESGGGLVQAGGSLRLICAASGSTFWGYTMGWYRQAPGKERELVAAITRSSGRTYYADSVKGRFTISRDNAMNTVYLQFHSLKPEDTAVYYWNADAVGRRTWSPYDYWGQGSQVTVSS :: high polyreactivity
QVQLVESGGGLVQAGGSLRLSCAASGNIFSVYAMGWYRQAPGKERELVAAISSSGGRTYYADSVKGRFTISRENSKNTVYLQMNSLKPEDTAVYYCAARSYTGQFGYWGQGTQVTVSS :: high polyreactivity

query: Please report the recorded polyreactivity (PSR sort gate) for QVQLQESVGGQVQAGGSLRLSCAASGTIFLYAFIGWYRQAPGKEPELVAAIDVGTTTNYADSVKGRFTISRDNAKNTVYLQMNSLKPEDTAVYYCAANLGYLDDLGYWGQGTQVTVSS .
result: low polyreactivity

query: Also QVQLVESGGGLVQAGGSLRLSCAASGLIFHSYAMGWYRPAPGKERELVAAISRGGGSTYYADSVKGRFTISRDNAKNTVYLQMNSLKPEDTAVYYCAREYFTRYDYWGQGTQVTVSS , if possible.
result: high polyreactivity

query: Also QVQLVESGGGLVQAGGSLRLSCAASGFIFQTNVMGWYRQAPGKERELVAAISSGDSTYYADSVKGRFTISRDNAKNTVYLQLNSLKPEDTAVYYCAADVLGTTTTVGGFNYWGQGTQVTVSS , if possible.
result: low polyreactivity
